# Assay notes: chemical genetic growth profiling, strain panel (AID 1159580);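 note: tested at 20 µM; growth read once vehicle control cultures reached saturation at 30 °C; 1 = growth at the plate median or of vehicle wells; lower values mean less growth of the strain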
# Run conditions: S. cerevisiae deletion strains, growth OD, locus YKL068W, hits give low values
About 2,000 (36%) of roughly 5,500 compounds were called active. About 18% were inconclusive and are not listed. This is one part of the list.
Quantity: normalized growth
Could you respond with only the numeric value?

Solved cases below.
| Compound | Quantity | Quantitative result |
| --- | --- | --- |
| COc1cc2c(cc1OC)Cc1cc(OC)c(OC)cc1Cc1cc(OC)c(OC)cc1C2 | normalized growth | 1.02 |
| NCCSSCCN | normalized growth | 1.01 |
| O=C(CC[N+](=O)[O-])OC[C@H]1O[C@@H](O)[C@H](OC(=O)CC[N+](=O)[O-])[C@@H](OC(=O)CC[N+](=O)[O-])[C@@H]1OC(=O)CC[N+](=O)[O-] | normalized growth | 1 |
| COc1ccc2c(c1OC)C(=O)O[C@@H]2[C@H]1c2cc3c(cc2CCN1C)OCO3 | normalized growth | 1.02 |
| CN1CCC(=C2c3ccccc3CC(=O)c3sccc32)CC1 | normalized growth | 1.02 |

Entry under test: CCS(=O)CCSP(=O)(OC)OC (centres undefined) . Its normalized growth was 1

The reported value for C[N+](C)(C)CCCCCC[N+](C)(C)C in terms of normalized growth is 0.988

# normalized growth of CC(=O)OCC(=O)[C@@]1(O)CCC2C3CCC4=CC(=O)CC[C@]4(C)C3C(=O)C[C@@]21C (some centres undefined) = 1.02

get_value(item= COc1cc2c(cc1OC)C(=O)OC2 , readout=normalized growth) returns 1

Sure, the documented normalized growth for CN1CCC(=C2c3ccccc3Sc3ccccc32)CC1 is 1

// normalized growth lookup, compound = O=C(O)c1cc2ccccc2[nH]1 , result: 1

Given item CC(=O)c1c(O)c(C)c(O)c2c1oc1c(C(C)=O)c(O)c(C)c(O)c12 , the value recorded as its normalized growth is 0.995

Cc1cccc(C)c1OCC(C)N (centres undefined) has a reported normalized growth of 0.982
